Could you please report measured melting point for the items listed next?

Query string: // query melting point value for entry O=c1ccoc2cc(OCCn3ccnc3)ccc12 [Example 50]
Result string: 131 to 133 °C

Query string: // query melting point value for entry CC(COc1ccc2c(c1)CCCC2=O)n1ccnc1 (stereo not shown) [Example 78]
Result string: 132 to 135 °C

Query string: // query melting point value for entry Cc1cc2c(cc1OCCn1ccnc1)CC/C(=C\c1cccs1)C2=O [Example 46]
Result string: 150 to 151 °C

Query string: // query melting point value for entry O=C1C(=Cc2ccc(Cl)s2)CCc2cc(OCCn3ccnc3)ccc21 [Example 18]
Result string: 143 to 144 °C

Query string: // query melting point value for entry ON=C1CCCc2cc(OCCn3ccnc3)ccc21 [Example 53]
Result string: 177 to 179 °C

Query string: // query melting point value for entry Cl.O=C1CCCc2cc(OCCCc3c[nH]cn3)ccc21 [Example 43]
Result string: 153 to 155 °C

Query string: // query melting point value for entry O=C1c2ccc(OCCn3ccnc3)cc2CCC1Cc1ccc(Br)cc1 (stereo not shown) [Example 13]
Result string: 129 to 130.5 °C

Query string: // query melting point value for entry O=c1cc(-c2ccccc2)oc2cc(OCCn3ccnc3)ccc12 [Example 77]
Result string: 155 to 159 °C

Query string: // query melting point value for entry CC(COc1ccc2c(c1)CC/C(=C\c1cccs1)C2=O)n1ccnc1 (stereo not shown) [Example 79]
Result string: 160 to 162 °C

Query string: // query melting point value for entry O=C1CCOc2cc(OCCn3ccnc3)ccc21 [Example 51]
Result string: 128 to 130 °C

###

biological target: SF9 affinity purified rat FPT (Rattus norvegicus, UniProt Q02293+Q04631); construct: made in house; host or cells: Sf9 insect cells; experiment: PFT (farnesyl protein transferase) inhibitory activity, radiolabeled farnesyl pyrophosphate / biotinyl peptide bead assay; type: biochemical; details: average of two tests unless n is given in parentheses; read-out: FTase, IC50
Structures can show the parent of a compound that is named as a salt.
Could you please report measured IC50 for the items listed next?
Report as a plain number; the unit nM is understood.

Query string: // query IC50 value for entry O=C1CCCc2cc(OC(Cn3ccnc3)c3ccccc3)ccc21 (stereo not drawn)
Result string: 73

Query string: // query IC50 value for entry CSc1ccc(C=C2CCc3cc(OCCn4ccnc4)ccc3C2=O)s1
Result string: 700

Query string: // query IC50 value for entry CC(COc1ccc2c(c1)CC/C(=C\c1cccs1)C2=O)n1ccnc1 (stereo not drawn)
Result string: 230

Query string: // query IC50 value for entry O=C1C(=Cc2ccc(Br)cc2)CCc2cc(OCCc3c[nH]cn3)ccc21
Result string: 5900

Query string: // query IC50 value for entry Cc1c(OCCn2ccnc2)ccc2c1CCCC2=O
Result string: 1300

Query string: // query IC50 value for entry O=C1/C(=C/C2CCCCC2)CCc2cc(OCCn3ccnc3)ccc21 [Example 45, hydrochloride]
Result string: 5800

###

Could you please report measured IC50 for the items listed next?
biological target: SF9 affinity purified rat FPT (Rattus norvegicus, UniProt Q02293+Q04631); construct: made in house; host or cells: Sf9 insect cells; assay: PFT (farnesyl protein transferase) inhibitory activity, radiolabeled farnesyl pyrophosphate / biotinyl peptide bead assay; assay type: biochemical; details: average of two tests unless n is given in parentheses; read-out: FTase, IC50
Where a name gives a salt, the structure may show the parent alone.

Query string: // query IC50 value for entry CSc1ccc(CC2CCc3cc(OCCn4ccnc4)ccc3C2=O)cc1 (stereo not shown)
Result string: 0.37 µM

Query string: // query IC50 value for entry Cc1cc2c(cc1OCCn1ccnc1)CC/C(=C\c1cccs1)C2=O
Result string: 15.4 µM

Query string: // query IC50 value for entry Cl.O=C1CCCc2cc(OCCCc3c[nH]cn3)ccc21 [Example 43, hydrochloride]
Result string: 4.4 µM

Query string: // query IC50 value for entry NC(=O)c1ccc(C=C2CCc3cc(OCCc4c[nH]cn4)ccc3C2=O)cc1 [Example 33, monohydrochloride]
Result string: 7.3 µM
